Origin of the recorded values: ChEMBL document CHEMBL1150666

Would you kindly list Activity for each of these compounds?
# procedure summary: ABTS radical scavenging activity assessed as Trolox equivalent antioxidant capacity at 1 mM by spectrophotometry
# Type: physicochemical
# study conditions: 1000 µM
Number plus unit, in that order.

What does the record list as Activity for O=c1c(O)c(-c2cc(O)c(O)c(O)c2)oc2cc(O[C@@H]3O[C@H](CO[C@@H]4O[C@H](CO)[C@@H](O)[C@H](O)[C@H]4O)[C@@H](O)[C@H](O)[C@H]3O)cc(O)c12 ?
1.62 mM

What does the record list as Activity for O=c1c(O[C@@H]2O[C@H](CO)C(O)[C@H](O)[C@H]2O)c(-c2ccc(O)c(O)c2)oc2cc(O)cc(O)c12 (single isomer, unassigned) ?
1.1 mM

What does the record list as Activity for COC(=O)c1ccc(O)cc1 ?
0.147 mM
